System: epithelial carcinoma A431 cell line
assay.text: MTT Cell Proliferation Assay, A431 cells
Assay type: cell-based
run.parameters: Homo sapiens, A-431, A431 cells, first value of cell; read-out: MTT Assay IC50(A431/MDBK): A431
Structures can show the parent of a compound that is named as a salt.
Kindly apply the following: Condition met if IC50 is less than 10 µM, Condition not met in every other case.

{"molecule": "Cc1nc(Nc2nc(CSc3nc4ccccc4[nH]3)cc(=O)[nH]2)nc2ccccc12 [compound 11582]", "tested.target": "epithelial carcinoma A431 cell line", "qualitative.label": "Condition met"}
{"molecule": "CCOc1ccc2nc(Nc3nc(C)c(CCC(C)C)c(=O)[nH]3)nc(C)c2c1 [12684 + TFA]", "tested.target": "epithelial carcinoma A431 cell line", "qualitative.label": "Condition not met"}
{"molecule": "Cc1ccc2nc(Nc3nc(CCC(C)C)cc(=O)[nH]3)nc(C)c2c1 [11795 + TFA]", "tested.target": "epithelial carcinoma A431 cell line", "qualitative.label": "Condition not met"}

Is IC50 of Cc1nc(Nc2nc(C)c3cccc(C)c3n2)[nH]c(=O)c1Cc1ccccc1 [12611 + TFA] strictly below 10 µM?
Condition met

Does Cc1ccc2c(C)nc(Nc3nc4c(c(-c5ccccc5)n3)CCCC4)nc2c1 [compound 11777] have IC50 strictly under 10 µM?
Condition met

----------
tested.target: EGFR (Homo sapiens)
Construct: host or cells: A431
assay.text: EGFR in-cell Western (ICW) screening protocol (EGFR inhibition assay)
Type: cell-based
Parameters: unit not given here
run.parameters: ICW assay, run 1
Where a name gives a salt, the structure may show the parent alone.
quantity.kind: ICW 1
// no unit, no text: just the number

Report measured ICW 1; entry is CCc1ccc2nc(Nc3ncc4c(n3)CC(c3cccc(Cl)c3)CC4=O)nc(C)c2c1 (centres unmarked) [11680 + TFA]
32.59

For CCc1c(C)nc(Nc2nc(C)c3ccc(C)cc3n2)[nH]c1=O [12665 + TFA] , write its ICW 1.
51.06

Return ICW 1 for the following compound: CCOc1ccc2nc(Nc3ncc4c(n3)CC(c3ccco3)CC4=O)nc(C)c2c1 (centres unmarked) [11674 + TFA]
31.91

Report ICW 1, nothing else, for this compound: Cc1nc(Nc2nc(CSc3ccccn3)cc(=O)[nH]2)nc2ccccc12 [12740 + TFA]
28.77

Identify ICW 1 associated with the compound `COC(=O)Cc1cc(=O)nc(Nc2nc(C)c3ccccc3n2)[nH]1`
28.83

----------
tested.target: EGFR (Homo sapiens, UniProt P00533)
Construct: host or cells: A431
Sequence (P00533 25-1210): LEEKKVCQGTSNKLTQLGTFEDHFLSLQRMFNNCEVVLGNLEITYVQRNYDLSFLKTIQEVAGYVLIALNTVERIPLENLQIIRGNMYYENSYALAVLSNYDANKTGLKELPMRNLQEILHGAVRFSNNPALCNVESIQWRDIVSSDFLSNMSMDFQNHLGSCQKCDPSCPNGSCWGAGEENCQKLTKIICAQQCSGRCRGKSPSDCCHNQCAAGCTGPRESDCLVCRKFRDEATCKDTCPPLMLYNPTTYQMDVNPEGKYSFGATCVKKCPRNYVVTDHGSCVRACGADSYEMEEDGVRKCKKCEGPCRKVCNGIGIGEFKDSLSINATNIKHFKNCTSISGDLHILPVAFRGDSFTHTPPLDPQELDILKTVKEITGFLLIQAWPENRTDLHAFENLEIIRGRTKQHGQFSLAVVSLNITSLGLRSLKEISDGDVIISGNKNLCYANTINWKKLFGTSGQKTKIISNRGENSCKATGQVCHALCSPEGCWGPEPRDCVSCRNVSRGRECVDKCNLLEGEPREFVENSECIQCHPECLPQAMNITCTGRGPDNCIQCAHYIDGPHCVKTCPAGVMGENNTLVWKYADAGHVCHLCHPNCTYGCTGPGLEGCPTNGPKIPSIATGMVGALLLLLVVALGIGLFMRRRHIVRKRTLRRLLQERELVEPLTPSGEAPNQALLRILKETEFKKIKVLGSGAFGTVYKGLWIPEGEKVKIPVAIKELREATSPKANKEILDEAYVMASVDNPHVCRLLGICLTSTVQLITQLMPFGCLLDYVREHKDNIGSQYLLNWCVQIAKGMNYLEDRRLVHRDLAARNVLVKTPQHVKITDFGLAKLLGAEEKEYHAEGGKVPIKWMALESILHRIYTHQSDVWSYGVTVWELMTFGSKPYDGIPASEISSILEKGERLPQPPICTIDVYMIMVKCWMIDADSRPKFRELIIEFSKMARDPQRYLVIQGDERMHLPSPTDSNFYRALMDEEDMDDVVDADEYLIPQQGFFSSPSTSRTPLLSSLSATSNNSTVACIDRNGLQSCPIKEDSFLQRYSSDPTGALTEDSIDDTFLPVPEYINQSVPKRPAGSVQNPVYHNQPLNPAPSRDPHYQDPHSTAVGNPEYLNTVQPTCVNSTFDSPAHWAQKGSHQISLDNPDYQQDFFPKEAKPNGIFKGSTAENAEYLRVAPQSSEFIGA
assay.text: EGFR in-cell Western (ICW) screening protocol (EGFR inhibition assay)
Assay type: cell-based
run.parameters: Table 10; % Inhibition of EGF dependent EGFR phosphorylation in A431 cells; compound 125 μM in assay
Protocol: The following example describes general EGFR in-cell Western (ICW) screening protocol. Methods are according to Chen et al. (2005) Analytical Biochemistry 338, 136-142 (incorporated herein by reference), except as otherwise noted. Cell Plates: A431 cells (ATCC # CRL-1555) were grown in Dulbecco's Modified Eagle Medium (DMEM; ATCC #30-2002) supplemented with 10% fetal bovine serum, 105 units/ml pen/strep (Invitrogen #15140155) and 2.1 mM L-glutamine (ATCC #30-2214). […]
quantity.kind: ICW assay
Answer with the value's number alone.

Could you please provide reported ICW assay for O=S(=O)(c1ccc(NC(=S)Nc2cccc(C(F)(F)F)c2)cc1)N1CCc2ccccc21 [AD4-12239] ? Thanks!
67.8291

Return ICW assay (reported value) for this compound: COc1ccc(NC(=S)Nc2ccc(S(=O)(=O)Nc3ccc(Cl)c(Cl)c3)cc2)cc1OC [AD4-11432]
47.0006

Return the recorded ICW assay value; entry: COc1cc(NC(=S)Nc2ccc(S(=O)(=O)Nc3cc(Cl)cc(Cl)c3)cc2)cc(OC)c1 [AD4-12482]
28.3382

Give me measured ICW assay, please, for this compound: Cc1ccc(NC(=S)Nc2ccc(S(=O)(=O)Nc3ccc(Cl)cc3)cc2)cc1 [AD4-12413]
35.1946

Using known records, supply ICW assay for Cc1ccc(C)c(NC(=S)Nc2ccc(S(=O)(=O)N3c4ccc(F)cc4CCC3C)cc2)c1 (centres unmarked) [AD4-12824]
25.9501

----------
tested.target: EGFR (Homo sapiens)
Construct: host or cells: A431
assay.text: EGFR in-cell Western (ICW) screening protocol (EGFR inhibition assay)
Format: cell-based
Set-up: unit not given here
run.parameters: ICW assay, run 1
Structures can show the parent of a compound that is named as a salt.
Label criterion met when ICW 1 >= 40; otherwise criterion not met.

Worked set:
{"compound": "COc1cccc2c(C)nc(Nc3nc(C(F)(F)F)cc(=O)[nH]3)nc12", "tested.target": "EGFR (Homo sapiens)", "qualitative.label": "criterion met"}
{"compound": "CCCc1cc(=O)[nH]c(Nc2nc(C)c3ccc(OC)cc3n2)n1 [12669 + TFA]", "tested.target": "EGFR (Homo sapiens)", "qualitative.label": "criterion not met"}
{"compound": "O=c1cc(C(F)(F)F)[nH]c(Nc2nc(-c3ccccc3)c3cc(Cl)ccc3n2)n1 [11759 + TFA]", "tested.target": "EGFR (Homo sapiens)", "qualitative.label": "criterion not met"}

Evaluate Cc1ccc2nc(Nc3nc(C(C)C)cc(=O)[nH]3)nc(C)c2c1 [12741 + TFA] : ICW 1 at minimum 40?
criterion met

Reported ICW 1 reaches at least 40 for Cc1ccc2c(C)nc(Nc3nc(CCC(C)C)cc(=O)[nH]3)nc2c1 [11783 + TFA] ?
criterion met

Check this compound for ICW 1 at or above 40: Cc1ccc2nc(Nc3nc(CCC(C)C)cc(=O)[nH]3)nc(C)c2c1 [11795 + TFA]
criterion not met

----------
# log10 of IC50 per entry
Tested on: epithelial carcinoma A431 cell line
assay.text: MTT Cell Proliferation Assay, A431 cells
Type: cell-based
run.parameters: Homo sapiens, A-431, A431 cells, first value of cell; read-out: MTT Assay IC50(A431/MDBK): A431
From the text: The following example describes the MTT Cell Proliferation Assay. The MTT Cell Proliferation Assay is a colorimetric assay system that measures the reduction of the tetrazolium salt MTT (3-(4,5-dimethylthiazol-2-yl)-2,5-diphenyltetrazolium bromide) into insoluble formazan crystals, produced by the mitochondria of viable cells. […] The color can then be quantified by spectrophotometric means. […] Plates were read in a Tecan Sunrize UV plate reader, at 560 nm. […]
Structures can show the parent of a compound that is named as a salt.
Scale type: logarithmic (base 10). Underlying IC50 unit: µM.

Worked examples, 6 compounds total:
{"compound": "Cc1ccc(SCc2cc(=O)[nH]c(Nc3nc(C)c4cc(C)cc(C)c4n3)n2)cc1 [11727 + TFA]", "log10 of IC50": 1.55}
{"compound": "COc1ccccc1-c1cc(=O)[nH]c(Nc2nc(C)c3cc(C)c(C)cc3n2)n1 [11746 + TFA]", "log10 of IC50": 1.53}
{"compound": "Cc1cccc(Cc2c(C)nc(Nc3nc(C)c4cccc(C)c4n3)[nH]c2=O)c1 [11754 + TFA]", "log10 of IC50": 0.75}
{"compound": "COc1cccc2c(C)nc(Nc3nc(C(F)(F)F)cc(=O)[nH]3)nc12", "log10 of IC50": 1.73}
{"compound": "CCCc1c(C)nc(Nc2nc(C)c3cc(C)ccc3n2)[nH]c1=O", "log10 of IC50": 1.56}
{"compound": "Cc1nc(Nc2nc3c(c(-c4ccccc4)n2)CCCC3)nc2c(C)cccc12 [12229 + TFA]", "log10 of IC50": 1.28}

Identify log10 of IC50 associated with the compound Cc1ccc2nc(Nc3nc(=O)cc(CSc4ccc(Cl)cc4)[nH]3)nc(C)c2c1 [11826 + TFA]
1.69

Tell me measured log10 of IC50 for `COc1cccc(-c2cc(=O)[nH]c(Nc3nc(C)c4cccc(C)c4n3)n2)c1` please.
0.55

Respond only with log10 of IC50 recorded for CCc1ccc2nc(Nc3ncc4c(n3)CC(c3cccc(Cl)c3)CC4=O)nc(C)c2c1 (centres unmarked) [11680 + TFA]
1.34

Input `Cc1ccc2nc(Nc3nc(=O)cc(-c4ccccc4)[nH]3)nc(C)c2c1` , output reported log10 of IC50.
0.11

Give the measured log10 of IC50 for `CCOc1ccc2nc(Nc3nc(=O)c(Cc4ccc(C)cc4)c(C)[nH]3)nc(C)c2c1`
1.19

----------
tested.target: EGFR (Homo sapiens)
Construct: host or cells: A431
assay.text: EGFR in-cell Western (ICW) screening protocol (EGFR inhibition assay)
Assay type: cell-based
Design: unit not given here
run.parameters: ICW assay, run 1
Protocol: The following example describes general EGFR in-cell Western (ICW) screening protocol. Methods are according to Chen et al. (2005) Analytical Biochemistry 338, 136-142 (incorporated herein by reference), except as otherwise noted. Cell Plates: A431 cells (ATCC # CRL-1555) were grown in Dulbecco's Modified Eagle Medium (DMEM; ATCC #30-2002) supplemented with 10% fetal bovine serum, 105 units/ml pen/strep (Invitrogen #15140155) and 2.1 mM L-glutamine (ATCC #30-2214). […]
Structures can show the parent of a compound that is named as a salt.
Please mark Satisfied if the recorded ICW 1 is equal to or greater than 50, and Not satisfied if it falls below.

{"compound": "Cc1ccc2c(C)nc(Nc3nc(C(C)C)cc(=O)[nH]3)nc2c1 [compound 11472]", "tested.target": "EGFR (Homo sapiens)", "qualitative.label": "Satisfied"}
{"compound": "COCc1cc(=O)nc(Nc2nc(C)c3cc(C)cc(C)c3n2)[nH]1 [11625 + TFA]", "tested.target": "EGFR (Homo sapiens)", "qualitative.label": "Not satisfied"}
{"compound": "COc1cccc2c(C)nc(Nc3nc(-c4ccccc4)cc(=O)[nH]3)nc12 [compound 11741]", "tested.target": "EGFR (Homo sapiens)", "qualitative.label": "Satisfied"}

Has Cc1ccc2nc(Nc3nc(C)cc(-c4ccccc4)n3)nc(C)c2c1 [12689 + TFA] a recorded ICW 1 greater than or equal to 50?
Not satisfied

For this compound, is measured ICW 1 50 or higher? Cc1ccc2nc(Nc3nc(CSc4ncccn4)cc(=O)[nH]3)nc(C)c2c1 [compound 11751]
Not satisfied

For this compound, is measured ICW 1 50 or higher? CCc1ccc2nc(Nc3nc(C)c(CCC(C)C)c(=O)[nH]3)nc(C)c2c1 [compound 11462]
Satisfied

Does the reported ICW 1 for Cc1ccc(-c2cc(=O)[nH]c(Nc3nc(C)c4ccc(C)cc4n3)n2)cc1 [12604 + TFA] fall at or above the 50 mark?
Satisfied

Origin of measurements: patent US20140179681A1
